# Test system: EKVX
# Test name: NCI tumour cell line growth inhibition, 48 h
Activity calls are given as the source filed them. Cut-off read from the data, not from the text of the source: active = GI50 up to about 1.1 µM and inactive = higher.
Please provide measured GI50 for the entries that follow.

Could you share which GI50 value was measured for O=C1NC(O)CCN1C1OC(CO)C(O)C1O (stereo unspecified) ?
> 250 µM (inactive)

What do we get for O=C1[C@@H]2C(c3ccccc3Br)=NO[C@@H]2C(=O)N1c1ccc(Cc2ccc(N3C(=O)[C@H]4C(c5ccccc5Br)=NO[C@H]4C3=O)cc2)cc1 ?
> 100 µM (inactive)

Another molecule to check: O=C1CSC(c2cccc(Cl)c2)N1c1c(O)c(Cl)cc(Br)c1Cl (stereo unspecified)
> 100 µM (inactive)

What do you get for Cc1cn(C2CC(OC(=O)c3ccc(Cl)cc3)C(COC(=O)c3ccc(Cl)cc3)O2)c(=O)[nH]c1=O (stereo unspecified) ?
> 100 µM (inactive)

Input COc1ccc2oc(C(=O)N3CC(CCl)c4ccc(N)cc43)cc2c1 (stereo unspecified)
0.933 µM (active)

Further, for Cc1ccc(OCC2OC(n3cnc4c(Cl)nc(N)nc43)CC2Oc2ccc(C)cc2)cc1 (stereo unspecified) ?
9.2 µM (inactive)

Then this molecule: C=C1C(=O)OC2C1C(OC(=O)/C(=C/C)COC(C)=O)CC1(CO1)C1C(OC(=O)/C(=C/C)CO)C=C(C)C21 (stereo unspecified)
2 µM (inactive)

// same read-out, input: Cc1cccc(/C=N/NC(=S)N2CCCCCC2)n1
0.288 µM (active)

And then CCOC(=O)C#Cc1ccc(C#CC(=O)OCC)cc1 , what is it?
7.74 µM (inactive)

# repeat for COc1cc(C)cc2c1C(=O)C(Br)=CC2=O
17.7 µM (inactive)

Try Brc1cccc(C2ON=C(c3ccccc3)N2C23CC4CC(CC(C4)C2)C3)c1 (stereo unspecified) next.
> 10 µM (inactive)

Then CC(C)C1=CC23CCC4C(C)(C(=O)O)CCCC4(C)C2CC1C(C(=O)O)C3C(=O)O (stereo unspecified) ?
> 100 µM (inactive)

Please give the result for Cn1c(=S)c2nc(SCCN3CCCC3)[nH]c2n(C)c1=O too.
76 µM (inactive)

Next: CCCC(=O)Oc1ccc(/C=N/NC(N)=S)nc1
> 100 µM (inactive)

Entry CN1C(=O)[C@H](c2c[nH]c3ccccc23)[C@H](c2c[nH]c3ccccc23)C1=O please
29.4 µM (inactive)

What do you have for O=C(c1ccc(Cl)cc1)N(C(=S)OCCOc1ccccc1)c1ccccc1 ?
20.1 µM (inactive)

Same question for CC(C)(C)C(=O)C(Cc1ccccc1)C(=O)C(C)(C)C please.
> 100 µM (inactive)

Repeat with CC1N(O)C(c2ccccc2)C(c2ccccc2)=[N+]1[O-] (stereo unspecified)
> 100 µM (inactive)

Also FC(F)(F)c1ccc2nc(Sc3ccccn3)cnc2c1 ?
49.2 µM (inactive)

Input NC(=O)/N=C1/CCC2C3CCCC2C13
> 100 µM (inactive)

Entry Cc1cc([N+](=O)[O-])c(C)c2c1[nH]c1ccc(O)cc12 please
> 100 µM (inactive)

###

# Test system: A549
# Test name: NCI tumour cell line growth inhibition, 48 h
Calls of active or inactive are those of the source. Cut-off read from the data, not from the text of the source: active = GI50 up to about 1.1 µM and inactive = higher.
Give measured GI50 for each item. Keep answers brief.

Using the record for CC1CC(N)=Nc2ccccc2N1Cc1ccccc1 (stereo not given) , report its GI50.
17.4 µM (inactive)

Lookup Cc1c(CCN2CCOCC2)c(N2CCOCC2)n2c(nc3ccccc32)c1C#N
> 10 µM (inactive)

Proceed to COc1cc(C2SCC(=O)N2NC(=O)c2ccc(NC(C)=O)cc2OC)ccc1O (stereo not given)
54.2 µM (inactive)

How about this molecule: C=C(CN(C)C)C(=O)c1ccccc1C
> 100 µM (inactive)

Now this one: CCOC(=O)c1c(-c2ccc(OC)cc2)c(C#N)c(=S)n(C2OC(COC(C)=O)C(OC(C)=O)C(OC(C)=O)C2OC(C)=O)c1-c1ccccc1 (stereo not given)
> 100 µM (inactive)

Entry to check: CC1(C)CC(=O)C(=CNc2nc(-c3ccc(Br)cc3)cs2)C(=O)C1
51.4 µM (inactive)

What would you report for Cn1ncc2c(Cl)ncnc21 ?
> 100 µM (inactive)

Similarly, COC(=O)NCCc1n[nH]c2c1C(=O)C=C(Nc1ccccc1)C2=O ?
36.7 µM (inactive)

Follow-up item: CCO[C@@]1(COCc2ccccc2)OC(=O)C[C@@H]1N1C(=O)OC[C@@H]1c1ccccc1
> 100 µM (inactive)

Note, next up: O=C1CC[C@H](NC(=O)Cc2ccccc2)C(=O)N1 [ANTINEOPLASTON A10]
> 1250 µM (inactive)

###

For each entry below, report its GI50 value.
# Tested on: SK-MEL-28
# Test name: NCI tumour cell line growth inhibition, 48 h
Activity calls are given as the source filed them. No stated cut-off is given here; in the data, active = GI50 up to about 1.1 µM and inactive = higher.

// returns reported GI50 for input CC1=CCC23C(C1)OC(Br)(C=CC2(C)O)C3(C)C (stereo not given)
> 100 µM (inactive)

Further, for C=C1C(=O)OC2C1C(OC(=O)/C(=C/C)COC(C)=O)CC1(CO1)C1C(OC(=O)/C(=C/C)CO)C=C(C)C21 (stereo not given) ?
1.82 µM (inactive)

For Cc1c2cc[n+](C)cc2c(C)c2c1[nH]c1ccc(O)c(OCC(F)(F)F)c12 then?
5.65 µM (inactive)

Try this compound too: CN1CCC23c4c5ccc(Oc6nnnn6-c6ccccc6)c4OC2c2[nH]c4ccccc4c2CC3(O)C1C5 (stereo not given)
2.1 µM (inactive)

Another: N#Cc1c2ccc([N+](=O)[O-])cc2c(=O)n2c1sc1ccc(C(F)(F)F)cc12
> 100 µM (inactive)

Proceed to O=C(c1ccc(Cl)cc1)N(C(=S)OCCOc1ccccc1)c1ccccc1
15.8 µM (inactive)

// repeat for O=C(Nc1c(Cl)cc([N+](=O)[O-])cc1Cl)C(=O)C(C(=O)c1ccncc1)C1OC(=O)c2ccccc21 (stereo not given) and report
> 100 µM (inactive)

// repeat for C[N+](C)(C)CCc1ccccc1 and report
> 100 µM (inactive)

Also Cc1cccc(/C=N/NC(=S)N2CCCCCC2)n1 ?
0.608 µM (active)

Moving on to COc1ccc(/C=C2\CSC/C(=C\c3ccc(OC)c(OC)c3OC)C2=O)c(OC)c1OC
28.1 µM (inactive)

###

# System: UACC-62
# Test name: NCI tumour cell line growth inhibition, 48 h
The source made the active and inactive calls. Rule as the data show it: active = GI50 up to about 1.1 µM and inactive = higher.
Hello, when you answer, please use one of the following outcomes: active, inactive

Check the results log: what was the call for COc1ccc2cc3c4cc5c(cc4cc[n+]3cc2c1OC)OCO5 ?
inactive

And the next one, CCOC(=O)CC[C@H](NC(=O)c1ccc(CNc2nc3cc(C(F)(F)F)ccc3nc2C(=O)OCC)cc1)C(=O)OCC ?
inactive

What would you report for CC(C)[C@H]1C(=O)O[B@-](F)(c2ccccc2)/[N+]1=C\N(C)C ?
inactive

Queued: C=C1C(=O)OC2C1C(OC(=O)/C(=C/C)COC(C)=O)CC1(CO1)C1C(OC(=O)/C(=C/C)CO)C=C(C)C21 (centres undefined)
inactive

Entry to check: COc1ccc(-c2[nH]c(=O)n(C3OC(CO)C(O)C(O)C3O)c(=O)c2C#N)cc1 (centres undefined)
inactive

Param item: COc1cc2cc(C(=O)N3CC(CCl)c4ccc(NO)cc43)[nH]c2c(OC)c1OC (centres undefined)
active

Now consider CCOC(=O)c1c(-c2ccc(OC)cc2)c(C#N)c(=S)n(C2OC(COC(C)=O)C(OC(C)=O)C(OC(C)=O)C2OC(C)=O)c1-c1ccccc1 (centres undefined) and answer again.
inactive

Next compound: CCCCCCCC(=O)OCC1OC(OC)C(NC(=O)N(CCCl)N=O)C(O)C1O (centres undefined)
inactive

Consider next the compound O=c1[nH]nc(Cc2ccc([N+](=O)[O-])cc2)n1CCO in the same way.
inactive

###

# Tested on: A549
# Test name: NCI tumour cell line growth inhibition, 48 h
Calls of active or inactive are those of the source. Rule as the data show it: active = GI50 up to about 1.1 µM and inactive = higher.
Hello, when you answer, please use one of the following outcomes: active, inactive

Write down the call the test reported for this compound. Item: C(=N\NC1=NCCN1)/c1ccc(-c2cn3cc(/C=N/NC4=NCCN4)ccc3n2)cc1
inactive

Also need COC(=O)C1=C(O)C(C(=O)OC)[C@]2(O)[C@H](C(=O)OC)[C@H]1C[C@@H](c1ccc(OC)c(OC)c1)[C@H]2C(=O)OC (stereo partly drawn) , thanks.
inactive

Now consider CN(CCN1C(=O)c2cc([N+](=O)[O-])cc3cc([N+](=O)[O-])cc(c23)C1=O)CCN1C(=O)c2cc([N+](=O)[O-])cc3cc([N+](=O)[O-])cc(c23)C1=O .
active

N=C(N)N/N=C/c1c(-c2cc([N+](=O)[O-])c(Cl)cc2Cl)nc2n1CCS2 , same question.
inactive

And for O=C1CCC(NC(=O)Cc2ccc(O)cc2)C(=O)N1 (stereo not drawn) ?
inactive

Quick one: CC(C)(CCCCC(C)(C)[N+](C)(C)C)[N+](C)(C)C
inactive

Same for CC(=O)N(C(C)=O)n1c(Cc2ccc(Cl)cc2)nn(C(C)=O)c1=O
inactive

Same thing, different compound: CC(C)(C)NCCC(O)c1cc(C(F)(F)F)nc2c(C(F)(F)F)cccc12 (stereo not drawn)
inactive

The measured values listed here are drawn from ChEMBL document CHEMBL1201862.
